System: Aspergillus fumigatus
assay: Antifungal activity against Aspergillus fumigatus AF-27 after 72 hrs by microbroth dilution technique
Type: functional, organism-based
cond: AF-27, 72 h
Overview of reported MIC across a group of compounds:
property.name: MIC (µg/mL)

INSERT INTO assay_data (chemical_smiles, property_name, unit_label, relational_operator, reported_result) VALUES
  ('COC(=O)CC[C@@H](C)[C@H]1CC[C@H]2[C@@H]3CC[C@@H]4C[C@](O)(CN=[N+]=[N-])CC[C@]4(C)[C@H]3C[C@H](O)[C@]12C', 'MIC', 'µg/mL', '>', 50),
  ('COC(=O)CC[C@@H](C)[C@H]1CC[C@H]2[C@@H]3CC[C@@H]4C[C@](O)(CNCCN)CC[C@]4(C)[C@H]3C[C@H](O)[C@]12C', 'MIC', 'µg/mL', '=', 12.5),
  ('COC(=O)CC[C@@H](C)[C@H]1CC[C@H]2[C@@H]3[C@H](O)C[C@@H]4C[C@](O)(CN)CC[C@]4(C)[C@H]3C[C@H](O)[C@]12C', 'MIC', 'µg/mL', '>', 50),
  ('COC(=O)CC[C@@H](C)[C@H]1CC[C@H]2[C@@H]3[C@H](O)C[C@@H]4C[C@H](O)CC[C@]4(C)[C@H]3C[C@H](O)[C@]12C', 'MIC', 'µg/mL', '>', 50),
  ('COC(=O)CC[C@@H](C)[C@H]1CC[C@H]2[C@@H]3CC[C@@H]4C[C@](O)(CN)CC[C@]4(C)[C@H]3C[C@H](O)[C@]12C', 'MIC', 'µg/mL', '=', 50),
  ('OC(Cn1cncn1)(Cn1cncn1)c1ccc(F)cc1F', 'MIC', 'µg/mL', '=', 2);

----------
Tested on: Sporothrix schenckii
assay: Antifungal activity against Sporothrix schenckii after 72 hrs by microbroth dilution technique
Type: functional, organism-based
property.name: IC50 (mg/L)

INSERT INTO measurements (chemical_smiles, measured_on, property_name, unit_label, reported_result) VALUES
  ('COC(=O)CC[C@@H](C)[C@H]1CC[C@H]2[C@@H]3[C@H](O)C[C@@H]4C[C@](O)(CN)CC[C@]4(C)[C@H]3C[C@H](O)[C@]12C', 'Sporothrix schenckii', 'IC50', 'mg/L', 50),
  ('COC(=O)CC[C@@H](C)[C@H]1CC[C@H]2[C@@H]3CC[C@@H]4C[C@](O)(CNCCN)CC[C@]4(C)[C@H]3C[C@H](O)[C@]12C', 'Sporothrix schenckii', 'IC50', 'mg/L', 3.36),
  ('COC(=O)CC[C@@H](C)[C@H]1CC[C@H]2[C@@H]3[C@H](O)C[C@@H]4C[C@](O)(CNCCN)CC[C@]4(C)[C@H]3C[C@H](O)[C@]12C', 'Sporothrix schenckii', 'IC50', 'mg/L', 18.3),
  ('COC(=O)CC[C@@H](C)[C@H]1CC[C@H]2[C@@H]3CC[C@@H]4C[C@](O)(CN)CC[C@]4(C)[C@H]3C[C@H](O)[C@]12C', 'Sporothrix schenckii', 'IC50', 'mg/L', 12.6);

----------
Test system: Escherichia coli
assay: Antibacterial activity against Escherichia coli ATCC 9637 after 24 hrs by NCCLS method
Format: functional, organism-based
cond: Escherichia coli, ATCC 9637, 24 h
property.name: MIC

INSERT INTO assay_data (molecule, reported_result) VALUES
  ('COC(=O)CC[C@@H](C)[C@H]1CC[C@H]2[C@@H]3[C@H](O)C[C@@H]4C[C@H](O)CC[C@]4(C)[C@H]3C[C@H](O)[C@]12C', '> 50 µg/mL'),
  ('COC(=O)CC[C@@H](C)[C@H]1CC[C@H]2[C@@H]3CC[C@@H]4C[C@](O)(CNCCN)CC[C@]4(C)[C@H]3C[C@H](O)[C@]12C', '50 µg/mL'),
  ('COC(=O)CC[C@@H](C)[C@H]1CC[C@H]2[C@@H]3CC[C@@H]4C[C@H](O)CC[C@]4(C)[C@H]3C[C@H](O)[C@]12C [METHYL DEOXYCHOLATE]', '> 50 µg/mL');

----------
Tested on: Trichophyton mentagrophytes
assay: Antifungal activity against Trichophyton mentagrophytes after 96 hrs by microbroth dilution technique
Format: functional, organism-based
property.name: MIC (µg/mL)

INSERT INTO measurements (molecule, property_name, relational_operator, reported_result) VALUES
  ('OC(Cn1cncn1)(Cn1cncn1)c1ccc(F)cc1F [FLUCONAZOLE]', 'MIC', '=', 1),
  ('COC(=O)CC[C@@H](C)[C@H]1CC[C@H]2[C@@H]3CC[C@@H]4C[C@H](O)CC[C@]4(C)[C@H]3C[C@H](O)[C@]12C [METHYL DEOXYCHOLATE]', 'MIC', '>', 50),
  ('COC(=O)CC[C@@H](C)[C@H]1CC[C@H]2[C@@H]3[C@H](O)C[C@@H]4C[C@H](O)CC[C@]4(C)[C@H]3C[C@H](O)[C@]12C [CHOLIC ACID, METHYL ESTER]', 'MIC', '>', 50),
  ('COC(=O)CC[C@@H](C)[C@H]1CC[C@H]2[C@@H]3CC[C@@H]4C[C@](O)(CNCCN)CC[C@]4(C)[C@H]3C[C@H](O)[C@]12C', 'MIC', '=', 6.25);

----------
Test system: Trichophyton mentagrophytes
assay: Antifungal activity against Trichophyton mentagrophytes after 96 hrs by microbroth dilution technique
Assay type: functional, organism-based
property.name: MIC (µg/mL)

INSERT INTO measurements (chemical_smiles, property_name, relational_operator, reported_result) VALUES
  ('COC(=O)CC[C@@H](C)[C@H]1CC[C@H]2[C@@H]3[C@H](O)C[C@@H]4C[C@](O)(CNCCN)CC[C@]4(C)[C@H]3C[C@H](O)[C@]12C', 'MIC', '=', 6.25),
  ('COC(=O)CC[C@@H](C)[C@H]1CC[C@H]2[C@@H]3[C@H](O)C[C@@H]4C[C@](O)(CN)CC[C@]4(C)[C@H]3C[C@H](O)[C@]12C', 'MIC', '=', 25),
  ('COC(=O)CC[C@@H](C)[C@H]1CC[C@H]2[C@@H]3CC[C@@H]4C[C@](O)(CN)CC[C@]4(C)[C@H]3C[C@H](O)[C@]12C', 'MIC', '=', 25),
  ('COC(=O)CC[C@@H](C)[C@H]1CC[C@H]2[C@@H]3[C@H](O)C[C@@H]4C[C@](O)(CN=[N+]=[N-])CC[C@]4(C)[C@H]3C[C@H](O)[C@]12C', 'MIC', '>', 50),
  ('COC(=O)CC[C@@H](C)[C@H]1CC[C@H]2[C@@H]3CC[C@@H]4C[C@](O)(CN=[N+]=[N-])CC[C@]4(C)[C@H]3C[C@H](O)[C@]12C', 'MIC', '>', 50);

----------
System: Candida parapsilosis
assay: Antifungal activity against Candida parapsilosis ATCC 22019 after 48 hrs by microbroth dilution technique
Format: functional, organism-based
cond: Lodderomyces parapsilosis, ATCC 22019, 48 h
property.name: IC50 (µg/mL)

INSERT INTO results (chemical_smiles, unit_label, relational_operator, reported_result) VALUES
  ('COC(=O)CC[C@@H](C)[C@H]1CC[C@H]2[C@@H]3CC[C@@H]4C[C@](O)(CN)CC[C@]4(C)[C@H]3C[C@H](O)[C@]12C', 'µg/mL', '>', 50),
  ('COC(=O)CC[C@@H](C)[C@H]1CC[C@H]2[C@@H]3[C@H](O)C[C@@H]4C[C@](O)(CN)CC[C@]4(C)[C@H]3C[C@H](O)[C@]12C', 'µg/mL', '>', 50),
  ('COC(=O)CC[C@@H](C)[C@H]1CC[C@H]2[C@@H]3CC[C@@H]4C[C@](O)(CNCCN)CC[C@]4(C)[C@H]3C[C@H](O)[C@]12C', 'µg/mL', '=', 18.4),
  ('COC(=O)CC[C@@H](C)[C@H]1CC[C@H]2[C@@H]3[C@H](O)C[C@@H]4C[C@](O)(CNCCN)CC[C@]4(C)[C@H]3C[C@H](O)[C@]12C', 'µg/mL', '=', 16.4);

----------
System: Aspergillus fumigatus
assay: Antifungal activity against Aspergillus fumigatus AF-27 after 72 hrs by microbroth dilution technique
Type: functional, organism-based
cond: AF-27, 72 h
Overview of reported MIC across a group of molecules:
property.name: MIC

INSERT INTO assay_data (molecule, measured_on, reported_result) VALUES
  ('COC(=O)CC[C@@H](C)[C@H]1CC[C@H]2[C@@H]3CC[C@@H]4C[C@H](O)CC[C@]4(C)[C@H]3C[C@H](O)[C@]12C [METHYL DEOXYCHOLATE]', 'Aspergillus fumigatus', '> 50 µg/mL'),
  ('COC(=O)CC[C@@H](C)[C@H]1CC[C@H]2[C@@H]3[C@H](O)C[C@@H]4C[C@](O)(CN=[N+]=[N-])CC[C@]4(C)[C@H]3C[C@H](O)[C@]12C', 'Aspergillus fumigatus', '> 50 µg/mL'),
  ('COC(=O)CC[C@@H](C)[C@H]1CC[C@H]2[C@@H]3[C@H](O)C[C@@H]4C[C@](O)(CNCCN)CC[C@]4(C)[C@H]3C[C@H](O)[C@]12C', 'Aspergillus fumigatus', '50 µg/mL');

From: ChEMBL document CHEMBL1154225
